biological target: ZNF721 DBD2 (Homo sapiens, UniProt Q8TF20-2 395-923); test: HT-SELEX; 20 mM HEPES pH 7, 140 mM KCl, 5 mM NaCl, 1 mM K2HPO4, 2 mM MgSO4, 100 uM EGTA, ZnSO4, 0.1% Tween20; room temperature, 1 h; high values mean tight binding; conditions: protein: ivt; tags: eGFP (N-terminal); dsDNA, one strand shown
Sequence (Q8TF20 383-911): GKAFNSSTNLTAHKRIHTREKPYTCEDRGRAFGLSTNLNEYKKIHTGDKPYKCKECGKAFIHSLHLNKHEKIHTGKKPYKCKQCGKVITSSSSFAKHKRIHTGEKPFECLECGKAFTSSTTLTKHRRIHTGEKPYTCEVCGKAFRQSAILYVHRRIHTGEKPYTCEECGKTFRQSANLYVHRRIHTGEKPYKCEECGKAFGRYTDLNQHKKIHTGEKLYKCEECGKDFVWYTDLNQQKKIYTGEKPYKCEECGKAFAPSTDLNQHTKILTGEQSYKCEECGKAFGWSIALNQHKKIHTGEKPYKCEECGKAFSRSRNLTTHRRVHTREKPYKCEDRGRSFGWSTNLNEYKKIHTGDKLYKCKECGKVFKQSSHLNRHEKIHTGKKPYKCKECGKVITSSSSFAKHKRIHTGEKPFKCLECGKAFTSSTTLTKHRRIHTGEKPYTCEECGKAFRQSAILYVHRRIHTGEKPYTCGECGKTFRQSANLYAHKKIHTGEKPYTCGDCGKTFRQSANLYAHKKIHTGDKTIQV
Listed below: binding signal values for each entry.

>  <seq>
CTCCTCCCCC

>  <unit-text>
relative 10-mer count

>  <binding signal>
0.00216

$$$$
>  <seq>
AAAAAGCGTC

>  <unit-text>
relative 10-mer count

>  <binding signal>
0.0102

$$$$
>  <seq>
CACACCACCC

>  <unit-text>
relative 10-mer count

>  <binding signal>
0.00527

$$$$
>  <seq>
ACGCTGTTTC

>  <unit-text>
relative 10-mer count

>  <binding signal>
0.199

$$$$
>  <seq>
ACGCTTCATA

>  <unit-text>
relative 10-mer count

>  <binding signal>
0.00108

$$$$
>  <seq>
CCTCACCCCC

>  <unit-text>
relative 10-mer count

>  <binding signal>
0.0018

$$$$
>  <seq>
CCCCGCCACC

>  <unit-text>
relative 10-mer count

>  <binding signal>
0.00336

$$$$
>  <seq>
CAGTGTTTCC

>  <unit-text>
relative 10-mer count

>  <binding signal>
0.641

$$$$
>  <seq>
AACAGGGTAT

>  <unit-text>
relative 10-mer count

>  <binding signal>
0.2

$$$$
>  <seq>
AAAAACAGTC

>  <unit-text>
relative 10-mer count

>  <binding signal>
0.169

$$$$

Numbers sourced from paper PMC13541613.
